Exercise: state measured koff for each of the binders provided.
measured.target: T1, Human VE-PTP (HPTP-β) containing first eight FN3 repeats with C-terminal His6 tag (Human ½ VE-PTP ECD) (human, UniProt P23467 23-820)
T1 construct: Produced in HEK293 cells and purified by the His tag; it was not cut off; also called Human Beta ½ ECD
T1 sequence: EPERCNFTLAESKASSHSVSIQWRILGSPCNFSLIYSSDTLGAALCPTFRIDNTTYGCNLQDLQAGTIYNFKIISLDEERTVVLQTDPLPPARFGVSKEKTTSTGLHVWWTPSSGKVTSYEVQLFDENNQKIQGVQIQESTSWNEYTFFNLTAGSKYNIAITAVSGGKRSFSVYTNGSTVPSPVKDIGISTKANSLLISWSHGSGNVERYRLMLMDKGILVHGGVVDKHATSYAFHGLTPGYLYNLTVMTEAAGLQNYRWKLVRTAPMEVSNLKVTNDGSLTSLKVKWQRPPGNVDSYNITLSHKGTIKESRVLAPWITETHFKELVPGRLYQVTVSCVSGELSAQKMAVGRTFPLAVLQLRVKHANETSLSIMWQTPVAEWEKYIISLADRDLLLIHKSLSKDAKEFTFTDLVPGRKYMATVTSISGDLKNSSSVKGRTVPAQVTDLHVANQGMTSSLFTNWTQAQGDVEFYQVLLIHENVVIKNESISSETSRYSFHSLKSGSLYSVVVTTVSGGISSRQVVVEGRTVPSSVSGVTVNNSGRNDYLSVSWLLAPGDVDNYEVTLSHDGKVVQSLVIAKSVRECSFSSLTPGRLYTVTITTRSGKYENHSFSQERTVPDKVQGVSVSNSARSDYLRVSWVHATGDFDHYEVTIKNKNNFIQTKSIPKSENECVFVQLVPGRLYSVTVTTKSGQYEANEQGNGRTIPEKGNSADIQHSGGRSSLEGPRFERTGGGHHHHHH
assay.comment: SPR (Biacore 3000), antibody captured on anti-human IgG, antigen as analyte 50-0 nM
Give bare numbers, in s⁻¹.

humanized R15E6 variant HC1LC4 (antibody, human IgG4 S228P, kappa, V domains shown, Human IgG4 (S228P) / kappa, expressed in CHO cells; Signal peptides left out by range; also called VH1-VL4) VH: EVQLVESGGGLVQPGGSLKLSCAASGFTFNANAMNWVRQASGKGLEWVGRIRTKSNNYATYYAGSVKDRFTISRDDSKNTAYLQMNSLKTEDTAAYYCVRDYYGSSAWITYWGQGTLVTVSS VL: DIVMTQSPDSLAVSLGERATINCKASQHVGTAVAWYQQKPEQPPKLLIYWASTRHTGVPDRFSGSGSGTDFTLTISSLQAEDVAVYYCQQYSSYPFTFGGGTKVEIKR
0.00134
humanized R15E6 variant HC1LC2 (antibody, human IgG4 S228P, kappa, V domains shown, Human IgG4 (S228P) / kappa, expressed in CHO cells; Signal peptides left out by range; also called VH1-VL2) VH: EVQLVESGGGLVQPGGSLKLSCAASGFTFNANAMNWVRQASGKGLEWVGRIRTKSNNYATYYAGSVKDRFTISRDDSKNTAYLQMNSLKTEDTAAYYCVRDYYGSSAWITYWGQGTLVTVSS VL: DIVMTQSPDSLAVSLGERATINCKASQHVGTAVAWYQQKPGQPPKLLIYWASTRHTGVPDRFSGSGSGTDFTLTISSLQAEDVAVYYCQQYSSYPFTFGQGTKLEIKR
0.000947
mouse/human chimeric antibody HC0LC0 (antibody, human IgG4 S228P, kappa, V domains shown, Murine variable domains of R15E6 on human IgG4 (S228P) and kappa constant domains, expressed in CHO cells; also called VH0-VL0) VH: EVQLVETGGGLVQPKGSMKLSCAASGFTFNANAMNWIRQAPGKGLEWVARIRTKSNNYATYYAGSVKDRFTISRDDAQNMLYLQMNDLKTEDTAMYYCVRDYYGSSAWITYWGQGTLVTVSA VL: DIVMTQSHKFMSTSVGDRVSITCKASQHVGTAVAWYQQKPDQSPKQLIYWASTRHTGVPDRFTGSGSGTDFTLTISNVQSEDLADYFCQQYSSYPFTFGSGTKLEIKR
0.000656

Here is another binder to look at.
Consider the binder shown here: humanized R15E6 variant HC2LC4 (antibody, human IgG4 S228P, kappa, V domains shown, Human IgG4 (S228P) / kappa, expressed in CHO cells; Signal peptides left out by range; also called VH2-VL4) VH: EVQLVESGGGLVQPGGSLRLSCAASGFTFNANAMNWVRQAPGKGLEWVGRIRTKSNNYATYYAGSVKDRFTISRDDSKNSLYLQMNSLKTEDTAVYYCVRDYYGSSAWITYWGQGTLVTVSS VL: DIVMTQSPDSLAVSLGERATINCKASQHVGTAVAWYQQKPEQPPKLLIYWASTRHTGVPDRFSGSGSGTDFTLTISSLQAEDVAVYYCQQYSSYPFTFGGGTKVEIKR What is its recorded koff?
0.000429
